Tested on: 616215-338-R-J1-PDC complex spheroid viability
Assay: Anticancer human tumor 616215-338-R-J1-PDC patient-derived colon adenocarcinoma cell line growth inhibition [POLQ]
Conditions: second compound 0.316 µM; first compound 3.16 µM; active compounds read low
Experimental: Multicellular complex tumor spheroid response to Polymerase (POL) inhibitors (novobiocin, ART-558, RP6685) in combination with a variety of drugs and investigational agents in selected tumor cell lines The POL inhibitors (novobiocin, ART-558, and RP6685) were evaluated both individually and in combination with standard of care and investigational anticancer small molecules within a complex spheroid model of solid tumors. . […]
This section presents compounds with their documented viability, T/C values.
RESULT_TYPE: viability, T/C (%)

- COMPOUND: "COc1ccc([C@@H](O)c2cc(-c3ncnc4cc(N5CCOCC5)ccc34)c(F)cc2Cl)nn1 + COC1C(OC(N)=O)C(O)C(Oc2ccc3c(O)c(NC(=O)c4ccc(O)c(CC=C(C)C)c4)c(=O)oc3c2C)OC1(C)C"
  UNITS_SYMBOL: "%"
  ASSAY_RESULT: 114
- COMPOUND: "CC1COCCN1c1cc(-c2ccnn2C)c2ccnc(-c3ccn[nH]3)c2n1 (stereo not drawn) + Cc1cccc(N(C)C(=O)C2C(O)CCN2c2nc(C)cc(C(F)(F)F)c2C#N)c1"
  UNITS_SYMBOL: "%"
  ASSAY_RESULT: 52.4
- COMPOUND: "CC1COCCN1c1cc(C2(S(C)(=N)=O)CC2)nc(-c2ccnc3[nH]ccc23)n1 (stereo not drawn) + Cc1cccc(N(C)C(=O)C2C(O)CCN2c2nc(C)cc(C(F)(F)F)c2C#N)c1"
  UNITS_SYMBOL: "%"
  ASSAY_RESULT: 89.1

----------
tested on: 616215-338-R-J1-PDC complex spheroid viability; assay: Anticancer human tumor 616215-338-R-J1-PDC cell line growth inhibition [POLQ]; conditions: second compound 0.1 µM; first compound 0.1 µM; active compounds read low;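 also: spheroids exposed to compounds for one week before readout; percent viability relative to DMSO vehicle wells taken as 100%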

- COMPOUND: "COc1cc2cc(C(=O)CCC(=O)O)sc2cc1OC + COC1C(OC(N)=O)C(O)C(Oc2ccc3c(O)c(NC(=O)c4ccc(O)c(CC=C(C)C)c4)c(=O)oc3c2C)OC1(C)C"
  viability, T/C: "101%"
- COMPOUND: "O=C(c1cc(Cc2n[nH]c(=O)c3ccccc23)ccc1F)N1CCN(C(=O)C2CC2)CC1 + Cc1cccc(N(C)C(=O)C2C(O)CCN2c2nc(C)cc(C(F)(F)F)c2C#N)c1"
  viability, T/C: "98.4%"
- COMPOUND: "C=CC(=O)N1CCN(c2nc(=O)n(-c3c(C)ccnc3C(C)C)c3nc(-c4c(O)cccc4F)c(F)cc23)C(C)C1 (stereo not given) + Nc1ccc(C#CCN(C(=O)Cc2ncc(C(F)(F)F)cc2C(F)(F)F)c2ccc(F)cc2)nn1"
  viability, T/C: "101%"
- COMPOUND: "COc1cccc2c1C(=O)c1c(O)c3c(c(O)c1C2=O)CC(O)(C(=O)CO)CC3OC1CC(N)C(O)C(C)O1 (stereo not given) + COC1C(OC(N)=O)C(O)C(Oc2ccc3c(O)c(NC(=O)c4ccc(O)c(CC=C(C)C)c4)c(=O)oc3c2C)OC1(C)C"
  viability, T/C: "100%"
- COMPOUND: "C=CC(=O)N1CCN(c2nc(=O)n(-c3c(C)ccnc3C(C)C)c3nc(-c4c(O)cccc4F)c(F)cc23)C(C)C1 (stereo not given) + COC1C(OC(N)=O)C(O)C(Oc2ccc3c(O)c(NC(=O)c4ccc(O)c(CC=C(C)C)c4)c(=O)oc3c2C)OC1(C)C"
  viability, T/C: "98.1%"
